- Experimental target: IFN-gamma (Homo sapiens, UniProt P01579 P01579:24-161)
- Sequence (P01579 24-161, one chain of several): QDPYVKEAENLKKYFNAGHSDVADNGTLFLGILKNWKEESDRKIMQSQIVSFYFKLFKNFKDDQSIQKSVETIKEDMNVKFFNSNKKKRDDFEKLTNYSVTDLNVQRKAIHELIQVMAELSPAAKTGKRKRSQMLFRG
- Measurement description: competition; 30 pM 125I-IFN-gamma, A549 cells
- Conditions used: tags: Genzyme (Cambridge MA); Upstate Biotechnology for early SELEX rounds; chain copies: 2 inferred
Assay readout: pIC50
Please note pIC50 is a logarithmic value: minus log10 of concentration in mol/L. Answer with that number alone.

# binder IFN-gamma 2'NH2-30 (ssRNA, 2'-NH2 all C and U) RNA: GGGAGGACGAUGCGGCAGGUAAUUACAUGAAGGUGGGUUAGGUACUUUCAGGGUCAGACGACUCGCCCGA ; its pIC50 = 8.00
